- assayedTarget: ERβ (Homo sapiens)
- Sequence (Q92731 whole entry, species assumed): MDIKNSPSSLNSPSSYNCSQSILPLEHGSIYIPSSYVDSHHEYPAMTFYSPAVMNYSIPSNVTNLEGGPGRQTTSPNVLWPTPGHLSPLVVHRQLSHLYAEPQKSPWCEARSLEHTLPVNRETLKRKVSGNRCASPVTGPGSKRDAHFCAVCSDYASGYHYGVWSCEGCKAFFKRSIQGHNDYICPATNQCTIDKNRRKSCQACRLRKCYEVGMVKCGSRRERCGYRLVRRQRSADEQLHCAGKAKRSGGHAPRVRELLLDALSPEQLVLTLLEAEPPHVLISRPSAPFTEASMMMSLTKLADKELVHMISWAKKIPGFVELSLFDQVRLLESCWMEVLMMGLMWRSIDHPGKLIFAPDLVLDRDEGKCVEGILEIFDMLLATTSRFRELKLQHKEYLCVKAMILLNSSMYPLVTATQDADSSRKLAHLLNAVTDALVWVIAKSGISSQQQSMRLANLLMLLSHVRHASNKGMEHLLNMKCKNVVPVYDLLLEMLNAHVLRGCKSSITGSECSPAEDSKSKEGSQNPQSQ
- experimentDescription: R-SAT functional assay, ERβ
- Type: cell-based
- Set-up: expressed in transfected cells; host or cells: transient transfection
pEC50: −log10 of the molar value.
Please note: class 1 applies when pEC50 is 8 or greater, and class 0 applies otherwise.

In [3]: df
Out[3]:
                    structuresmilesstring       assayedtarget    label
0  Oc1ccc(C2(c3ccccc3Cl)CCC(F)(F)CC2)cc1F  ERβ (Homo sapiens)  class 1
1        Oc1ccc(C2(c3ccccc3Cl)CCCCC2)cc1F  ERβ (Homo sapiens)  class 1
2    Oc1ccc(C2(c3ccccc3F)CCC(F)(F)CC2)cc1  ERβ (Homo sapiens)  class 1
3           Oc1ccc(C2(c3ccccc3)CCCCC2)cc1  ERβ (Homo sapiens)  class 0
4   Oc1ccc(C2(c3ccccc3Cl)CCC(F)(F)CC2)cc1  ERβ (Homo sapiens)  class 1
5   Oc1ccc(C2(c3ccccc3F)CCC(F)(F)CC2)cc1F  ERβ (Homo sapiens)  class 1
